# system: T1, PNUTS(1-148), PNUTS amino-terminal domain (PAD) (UniProt Q96QC0 1-148)
# T1 construct: PNUTS (PP1 nuclear targeting subunit), residues 1-148, termed PAD; Vector pET28-MHL (RRID:Addgene_26096) with N-terminal His6 tag and TEV site; Used 13C,15N-labelled in some NMR experiments; also called apo PAD; source: E. coli BL21 (DE3), purified (Ni-NTA, gel filtration)
# T1 sequence (looked up): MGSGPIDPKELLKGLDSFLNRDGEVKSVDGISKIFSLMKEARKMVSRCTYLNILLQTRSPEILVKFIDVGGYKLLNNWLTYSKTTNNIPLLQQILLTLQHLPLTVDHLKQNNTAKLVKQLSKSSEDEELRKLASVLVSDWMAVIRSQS
# assay-overview: BLI; C-terminally biotinylated MYC constructs or N-terminally biotinylated peptides on SA biosensors, dipped into serial dilutions of PAD (WT or mutant); Octet RED384; room temperature; HBS-EP (10 mM HEPES pH 7.4, 150 mM NaCl, 3 mM EDTA, 0.005% P20) with 0.002 mg/ml BSA; Kd from steady-state response curves; apparent
# experimental-context: both partners purified
readout: Kd (µM)
Expressed in µM, but write only the number.

Ask: I'd like to know its Kd. The binder in question is biotinylated MYC(1-88) with C-terminal AVI tag (domain or fragment, UniProt P01106-2 16-103, looked up, biotin on the C-terminal AVI tag, MYC, residues 1-88 (contains MB0 and MBI); Purified 'as described above'; also called wild-type MYC(1-88); recombinant biotinylated MYC N-terminal protein; source: E. coli BL21 (DE3)-BirA, biotinylated by co-expressed BirA, purified; not shown: AVI tag, C-terminal, kept) MPLNVSFTNRNYDLDYDSVQPYFYCDEEENFYQQQQQSELQPPAPSEDIWKKFELLPTPPLSPSRRSGLCSPSYVAVTPFSLRGDNDG
Result: 3.5

Every entry's value here was drawn from paper doi:10.1101/2021.12.02.470928.
